target: T1, purified interference factor(s), Donor A; assay: SPR, interference factor immobilized
T1 construct: also called interference in serum from Donor A
Listing of entries alongside the reported % of binding of reference (=100%).
I only need the number, in %, no unit after it.

# BINDER, % of binding of reference (=100%)
measured = [
    ("SEQ ID NO: 74 (VHH, Ex. 8) VHH: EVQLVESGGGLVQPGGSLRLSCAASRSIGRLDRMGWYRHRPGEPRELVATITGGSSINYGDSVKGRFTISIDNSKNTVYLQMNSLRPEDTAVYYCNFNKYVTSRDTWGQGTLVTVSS", 4),
]

Now look at this one.
Query: // % of binding of reference (=100%) lookup, key: SEQ ID NO: 81 (VHH, Ex. 8) VHH: EVQLVESGGGVVQPGGSLRLSCAASRSIGRLDRMGWYRHRPGEPRELVATITGGSSINYGDSVKGRFTISIDNSKNTVYLQMNSLRPEDTAVYYCNFNKYVTSRDTWGQGTLVTVSS
Response: 94

src = patent US20200216532A1
